- Tested on: rats
- measurement.protocol: Reversal of the effect of the mGluR2 PAM JNJ-42153605 on scopolamine-induced hyperlocomotion
- Format: in vivo
- settings: Rattus norvegicus, 1 h, Route PO, test compound 60 min before recording, criterion total distance >1500 cm
- Experimental: 2) Reversal of the Effect of the mGluR2 PAM JNJ-42153605 on Scopolamine-Induced Hyperlocomotion Apparatus Motor activity was measured in microprocessor-based motor activity arenas (closed gray PVC cylinders with a height of 39 cm and a diameter of 31 cm). […]
measured.property: ED50

A selection of reference data follows.
CCNc1cc(-c2cnn3c2C(=O)N(c2ccc(C(F)(F)F)cc2)C[C@@H]3C)ccn1
≥ 2.5 mg/kg
CCOc1cc(N2C[C@H](C)n3ncc(-c4ccnc(C)c4)c3C2=O)ccc1Cl
≥ 10 mg/kg
CNc1cc(-c2cnn3c2C(=O)N(c2ccc(C(F)(F)F)c(C)c2)C[C@@H]3C)ccn1
> 0.63 mg/kg
Cc1cc(-c2cnn3c2C(=O)N(c2ccc(C(F)(F)F)c(F)c2)C[C@@H]3C)ccn1
0.79 mg/kg
CCNc1cc(-c2cnn3c2C(=O)N(c2ccc(Cl)c(Cl)c2)C[C@@H]3C)ccn1
≥ 2.5 mg/kg

Field ED50 (entry Cc1cc(-c2cnn3c2C(=O)N(c2ccc(C(F)(F)F)c(C)c2)C[C@@H]3C)ccn1 ) reads ≥ 2.5 mg/kg

The molecule listed as COc1cc(-c2cnn3c2C(=O)N(c2ccc(C(F)(F)F)c(OC)c2)C[C@@H]3C)ccn1 has a reported ED50 of ≥ 2.5 mg/kg

Form field ED50, entry CCNc1cc(-c2cnn3c2C(=O)N(c2ccc(C(F)(F)F)c(Cl)c2)C[C@@H]3C)ccn1 : 0.79 mg/kg

Lab book: ED50 of COc1cc(N2C[C@H](C)n3ncc(-c4ccnc(C)c4)c3C2=O)ccc1Cl noted as ≥ 10 mg/kg

Briefly, ED50 measured for Cc1cc(-c2cnn3c2C(=O)N(c2ccc(Cl)cc2)C[C@@H]3C)ccn1 : 1.26 mg/kg

// ED50 lookup, molecule = C[C@H]1CN(c2ccc(C(F)(F)F)cc2)C(=O)c2c(-c3ccnc(N4CCC4)c3)cnn21 , result: ≥ 2.5 mg/kg

// sample COc1cc(-c2cnn3c2C(=O)N(c2ccc(C(F)(F)F)c(Cl)c2)C[C@@H]3C)ccn1 , its ED50 was ≥ 2.5 mg/kg

For record Cc1cc(-c2cnn3c2C(=O)N(c2ccc(Cl)c(C(F)(F)F)c2)C[C@@H]3C)ccn1 the listed ED50 is ≥ 2.5 mg/kg
